Assay info: protein stability index of a GFP-peptide fusion (GPS, HEK-293T) (PSI 1-6); higher = more stable;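 note: 24-mer peptide tiles fused after GFP, lentivirally expressed, FACS-sorted into six equal bins by GFP/DsRed ratio, decoded by Illumina sequencing, PSI is the read-weighted mean bin number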
Settings: treatment: MLN4924 1 uM, 8 h; c terminus: a fixed tail appended

[
  {
    "Seq text": "NFQFLPQVNGHPDPFDEIILFSLP [PTPN9]",
    "protein stability index": 2.37
  },
  {
    "Seq text": "MYEEEMEREEITTKKRKLGKNPDV [FAM50A]",
    "protein stability index": 5.14
  },
  {
    "Seq text": "ISNIDTTIEGTSDDLTVVDAASLR [MFF]",
    "protein stability index": 4.82
  },
  {
    "Seq text": "NPALEGLTQPLQGGTPHCEPCQLP [DNAAF3]",
    "protein stability index": 4.97
  },
  {
    "Seq text": "RDKAEELLQLPDTKVGSFMIRESE [SLA]",
    "protein stability index": 4
  },
  {
    "Seq text": "PDLRQDFNMMEQKKRVSMILQSPA [ADD1]",
    "protein stability index": 3.78
  },
  {
    "Seq text": "CIDFNKNLNEDDTFLVFSKAELGA",
    "protein stability index": 2.81
  }
]

----------
Assay info: protein stability index of a GFP-peptide fusion (GPS, HEK-293T) (PSI 1-6); higher = more stable
Settings: treatment: DMSO; c terminus: a fixed tail appended
Classification field: enter TRUE for protein stability index values not below 3, FALSE for values below it.

[
  {
    "Seq text": "QKNFNNLYGTKGNYTSRVWEYSSS [TRIM29]",
    "Assigned label": "FALSE"
  },
  {
    "Seq text": "YQETISDVLNDAIFDEDHDEMVIV [GCH1]",
    "Assigned label": "TRUE"
  },
  {
    "Seq text": "PDDYRCSYRIHNGQKLVVPGLLGS [FBXO3]",
    "Assigned label": "FALSE"
  },
  {
    "Seq text": "RLHHPHKSVQHVVLQALFYLLDRA [PTPN9]",
    "Assigned label": "FALSE"
  },
  {
    "Seq text": "ENHPQESKGQPRSQEESEEGEEDA [CHGB]",
    "Assigned label": "TRUE"
  },
  {
    "Seq text": "QDLKYISPEIMASVLNGKFANLIK [CDC25A]",
    "Assigned label": "FALSE"
  }
]

----------
Property: protein stability index; scope: individual sequences
Assay info: protein stability index of a GFP-peptide fusion (GPS, HEK-293T) (PSI 1-6); higher = more stable
Settings: treatment: DMSO; c terminus: a fixed tail appended
Endpoint name: protein stability index

[
  {
    "Seq text": "VTLGGVLRQQLVVSKELRMYDEKA [KLHL13]",
    "Endpoint name": "protein stability index",
    "Result value": 2.95
  },
  {
    "Seq text": "KPLDLSDSTLSYTETEATNSLITA [SMAD6]",
    "Endpoint name": "protein stability index",
    "Result value": 4.82
  },
  {
    "Seq text": "RDLKLCRFVFADRERKKLVLENLE [TRIB3]",
    "Endpoint name": "protein stability index",
    "Result value": 2.36
  },
  {
    "Seq text": "AVAQTAHLPADSEVTLEANPTSAP [RSAD1]",
    "Endpoint name": "protein stability index",
    "Result value": 5.4
  },
  {
    "Seq text": "GSENRNHRLLNMARNNNDPGRLTE [RNF180]",
    "Endpoint name": "protein stability index",
    "Result value": 4.08
  },
  {
    "Seq text": "YEIPHFRLKKVENIKIWLSLRSYL [PHTF1]",
    "Endpoint name": "protein stability index",
    "Result value": 2.8
  },
  {
    "Seq text": "KKDTLTEEETQFYISETVLAIDAI [STK38L]",
    "Endpoint name": "protein stability index",
    "Result value": 3.85
  },
  {
    "Seq text": "LVLLRQMLLELTRRGQEPLSALLQ [BCL2L13]",
    "Endpoint name": "protein stability index",
    "Result value": 2.37
  },
  {
    "Seq text": "SRIKGWWVFHHYVSTFLSGVMLTW [TMEM120A]",
    "Endpoint name": "protein stability index",
    "Result value": 2.55
  },
  {
    "Seq text": "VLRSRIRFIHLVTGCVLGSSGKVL [POMT2]",
    "Endpoint name": "protein stability index",
    "Result value": 2.62
  },
  {
    "Seq text": "ARIYEETLNILLYEAQDGRGPDNA [KCTD10]",
    "Endpoint name": "protein stability index",
    "Result value": 3.23
  },
  {
    "Seq text": "CLETLPEFRDDRDLVMALSAGGHG [KCNA4]",
    "Endpoint name": "protein stability index",
    "Result value": 3.68
  },
  {
    "Seq text": "IGPPSAAAIFKIYLSCLEELMKCQ [TRIP13]",
    "Endpoint name": "protein stability index",
    "Result value": 2.16
  },
  {
    "Seq text": "ETTESQQNGEEGTSTPEDKESGQE [SMARCE1]",
    "Endpoint name": "protein stability index",
    "Result value": 5.61
  },
  {
    "Seq text": "QRVGFGDDFDEDELMAELEELEQE [CHMP4C]",
    "Endpoint name": "protein stability index",
    "Result value": 5.33
  },
  {
    "Seq text": "TVQSRPRIDGKLDSPSRSPSKVEV [C2CD2L]",
    "Endpoint name": "protein stability index",
    "Result value": 4.78
  },
  {
    "Seq text": "LRYVNSTRAPQRAHEVLQELRDIS [FBXO28]",
    "Endpoint name": "protein stability index",
    "Result value": 3.09
  },
  {
    "Seq text": "VPTTPGPASGSTFRGRRDVSGSWE [RETREG3]",
    "Endpoint name": "protein stability index",
    "Result value": 4.37
  },
  {
    "Seq text": "YITKVSEEVTRLGAQVKELEEKCQ [TRIM15]",
    "Endpoint name": "protein stability index",
    "Result value": 4.07
  },
  {
    "Seq text": "LPGRKLVSSAVSPSIIPQEDPSQQ [INTS4]",
    "Endpoint name": "protein stability index",
    "Result value": 5.12
  },
  {
    "Seq text": "NPEEYNLDEPNAESDYTYSSSYEQ [SRPK2]",
    "Endpoint name": "protein stability index",
    "Result value": 5.52
  },
  {
    "Seq text": "LLPMLDALRFTADVRSVLSRNLHQ [CTDNEP1]",
    "Endpoint name": "protein stability index",
    "Result value": 2.5
  },
  {
    "Seq text": "TCPQCHRSLILDDRGLRGFPKNRV [TRIM9]",
    "Endpoint name": "protein stability index",
    "Result value": 2.74
  },
  {
    "Seq text": "NGLALGPDLNILEDSAESRPWRAG [PSD2]",
    "Endpoint name": "protein stability index",
    "Result value": 4
  },
  {
    "Seq text": "PSLDSRQRLDYEREIQPTAILSLD [SPRY1]",
    "Endpoint name": "protein stability index",
    "Result value": 4.39
  },
  {
    "Seq text": "ESGDEVPVELYTAFQHTPTSITLT [KMT2E]",
    "Endpoint name": "protein stability index",
    "Result value": 2.73
  }
]

----------
Assay info: protein stability index of a GFP-peptide fusion (GPS, HEK-293T) (PSI 1-6); higher = more stable
Settings: treatment: MLN4924 1 uM, 8 h; c terminus: a fixed tail appended

[
  {
    "Seq text": "TLVSSGSGTMGAAKVTGEVLDILT [FLOT1]",
    "protein stability index": 2.91
  },
  {
    "Seq text": "SDSGKDLPEPSKRGPPHGWPKLCP [MYCL]",
    "protein stability index": 4.63
  },
  {
    "Seq text": "PTAATTQNPVLSKLLMADQDSPLD [LCOR]",
    "protein stability index": 4.87
  },
  {
    "Seq text": "RVYHGWLFEGLGRDKAEELLQLPD [SLA]",
    "protein stability index": 2.82
  },
  {
    "Seq text": "QRVGFGDDFDEDELMAELEELEQE [CHMP4C]",
    "protein stability index": 5.35
  },
  {
    "Seq text": "PPLPPPDDPATLGPHLGLRGVPQS [DYRK1B]",
    "protein stability index": 4.91
  },
  {
    "Seq text": "VGYTTLVGNNHESWGWDLGRNRLY [SPSB1]",
    "protein stability index": 2.12
  },
  {
    "Seq text": "LLSRFSVGIFHLMQIAVPCAFLLL [TMEM175]",
    "protein stability index": 2.24
  },
  {
    "Seq text": "ADSMLMQGSRGLTDQAIFYAVTPL [HDAC6]",
    "protein stability index": 2.46
  },
  {
    "Seq text": "LLQTQHALGDAFADLSQKSPELQE [ARFIP2]",
    "protein stability index": 4.77
  },
  {
    "Seq text": "GGRALVVRKVPPGYSIKVFDFERS [SMAD6]",
    "protein stability index": 2.37
  },
  {
    "Seq text": "RGLHEDLQGVPERLLGTAGTEEKK [VTI1B]",
    "protein stability index": 5.58
  },
  {
    "Seq text": "MMRTQCLLGLRTFVAFAAKLWSFF [CTDNEP1]",
    "protein stability index": 4.02
  }
]
